targetOfAssay: T1, NS3 of SEQ ID NO: 3 (NS3 domain of Hepatitis C virus genotype 4a fused to the T7 tag at the N-terminus and … (Hepatitis C virus (genotype 4a)))
T1 construct: also called HCV NS3 genotype 4a
T1 chain: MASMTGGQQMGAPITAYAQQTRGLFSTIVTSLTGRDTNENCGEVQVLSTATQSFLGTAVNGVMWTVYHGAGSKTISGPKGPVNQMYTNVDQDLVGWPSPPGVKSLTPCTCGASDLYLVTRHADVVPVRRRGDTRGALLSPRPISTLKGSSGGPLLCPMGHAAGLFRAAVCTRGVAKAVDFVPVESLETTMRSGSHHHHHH
protocolSummary: fluorescence anisotropy, 0.1 µM labelled peptide titrated with NS3
Where no end group is shown, it is not given here. [ ]: non-standard residue; d: D form. The star is where a group is joined. FITC = O=C1OC2(c3ccc(O)cc3Oc3cc(O)ccc32)c2ccc(NC(=S)*)cc21; Ahx = NCCCCCC(=O)O
recordedEndpoint: Kd (nM)
Report the figure in nM without appending any unit label.

**Q:** # lookup: Kd of {FITC}-[Ahx]KKGSVVIVGRIVLSGKK (also called fluorescein isothiocyanate-NS4A) [isothiocyanate-labeled NS4A peptide of SEQ ID NO: 25 (FITC-NS4A)]
**A:** 169
